target: DNA polymerase theta (POLQ) (2-894); construct: 2-894; assay: ATPase Assay
RECORDED ENDPOINT: IC50 (nM)
Express the result in nM but write the number alone.

Dear colleague, please send me the reported IC50 for COc1cnc(Cl)cc1-c1cc(C)ncc1C(=O)Nc1nc2c(s1)CN(C(=O)c1nc(C)c(C)o1)C2 when you can. 8

Dear colleague, please send me the reported IC50 for COc1ccc(C#N)cc1-c1cc(C)ncc1C(=O)Nc1nc2c(s1)CN(C(=O)c1cc(C(F)F)ccc1F)C2 when you can. 8

Dear colleague, please send me the reported IC50 for COc1cnc(Cl)cc1-c1cc(C)ncc1C(=O)Nc1nc2c(s1)CN(C(=O)C1CC13CC3)C2 (racemic) when you can. 32.5

Dear colleague, please send me the reported IC50 for COc1cnc(Cl)cc1-c1cc(C)ncc1C(=O)Nc1nc2c(s1)CN(C(=O)c1cccnc1Cl)C2 when you can. 8

Dear colleague, please send me the reported IC50 for COc1cnc(Cl)cc1-c1cc(C)ncc1C(=O)Nc1nc2c(s1)CN(C(=O)c1ncc(C(C)(F)F)cc1Cl)C2 when you can. 8

Dear colleague, please send me the reported IC50 for COc1cnc(Cl)cc1-c1cc(C)ncc1C(=O)Nc1nc2c(s1)CN(C(=O)C1CC3(CC(OC(F)F)C3)C1)C2 (stereo not given) when you can. 8

Dear colleague, please send me the reported IC50 for COc1cnc(Cl)cc1-c1cc(C)ncc1C(=O)Nc1nc2c(s1)CN(C(=O)c1cccc(C)n1)C2 when you can. 8

Dear colleague, please send me the reported IC50 for COc1cnc(Cl)cc1-c1cc(C)ncc1C(=O)Nc1nc2c(s1)CN(C(=O)c1ccc(C(F)F)c(Cl)c1)C2 when you can. 8

Dear colleague, please send me the reported IC50 for COc1ccc(C(=O)N2Cc3nc(NC(=O)c4cnc(C)cc4-c4cc(C#N)ccc4OC)sc3C2)c(Cl)c1 when you can. 8

Dear colleague, please send me the reported IC50 for COc1cnc(Cl)cc1-c1cc(C)ncc1C(=O)Nc1nc2c(s1)CN(C(=O)c1cncc(C(F)F)n1)C2 when you can. 32.5

Dear colleague, please send me the reported IC50 for COc1cnc(Cl)cc1-c1cc(C)ncc1C(=O)Nc1nc2c(s1)CN(C(=O)c1ccc(C(F)F)c(F)c1)C2 when you can. 8

Dear colleague, please send me the reported IC50 for COc1cnc(Cl)cc1-c1cc(C)ncc1C(=O)Nc1nc2c(s1)CN(C(=O)c1nn(C)cc1N)C2 when you can. 8

Dear colleague, please send me the reported IC50 for COc1cnc(Cl)cc1-c1cc(C)ncc1C(=O)Nc1nc2c(s1)CN(C(=O)c1nc(C)cn1C)C2 when you can. 32.5

Dear colleague, please send me the reported IC50 for COc1cnc(Cl)cc1-c1cc(C)ncc1C(=O)Nc1nc2c(s1)CN(C(=O)c1ncc(Cl)cc1C(C)(F)F)C2 when you can. 8

Dear colleague, please send me the reported IC50 for COc1cnc(Cl)cc1-c1cc(C)ncc1C(=O)Nc1nc2c(s1)CN(C(=O)c1ccc(F)c(Cl)n1)C2 when you can. 8

Dear colleague, please send me the reported IC50 for COc1cnc(Cl)cc1-c1cc(C)ncc1C(=O)Nc1nc2c(s1)CN(C(=O)c1c(C)ncn1C)C2 when you can. 8

Dear colleague, please send me the reported IC50 for COc1cnc(Cl)cc1-c1cc(C)ncc1C(=O)Nc1nc2c(s1)CN(C(=O)c1nccc(C(F)(F)F)n1)C2 when you can. 8

Dear colleague, please send me the reported IC50 for COc1cnc(Cl)cc1-c1cc(C)ncc1C(=O)Nc1nc2c(s1)CN(C(=O)c1ccc(C(F)F)cc1F)C2 when you can. 8

Dear colleague, please send me the reported IC50 for COc1cnc(Cl)cc1-c1cc(C)ncc1C(=O)Nc1nc2c(s1)CN(C(=O)c1ccc(OC)c3cncn13)C2 when you can. 8

Dear colleague, please send me the reported IC50 for COc1ncc(Cl)c(C(=O)N2Cc3nc(NC(=O)c4cnc(C)cc4-c4cc(Cl)ncc4OC)sc3C2)n1 when you can. 8

Dear colleague, please send me the reported IC50 for COc1cnc(Cl)cc1-c1cc(C)ncc1C(=O)Nc1nc2c(s1)CN(C(=O)c1ccc(OC(F)F)nc1)C2 when you can. 8

Dear colleague, please send me the reported IC50 for COc1cnc(Cl)cc1-c1cc(C)ncc1C(=O)Nc1nc2c(s1)CN(C(=O)c1cnn(C(F)(F)F)c1)C2 when you can. 8

Dear colleague, please send me the reported IC50 for COc1cnc(Cl)cc1-c1cc(C)ncc1C(=O)Nc1nc2c(s1)CN(C(=O)c1ccc(C(F)F)nc1OC)C2 when you can. 8

Dear colleague, please send me the reported IC50 for COc1cnc(Cl)cc1-c1cc(C)ncc1C(=O)Nc1nc2c(s1)CN(C(=O)c1nc(Cl)ccc1C)C2 when you can. 8

Dear colleague, please send me the reported IC50 for COc1cnc(Cl)cc1-c1cc(C)ncc1C(=O)Nc1nc2c(s1)CN(C(=O)c1ccnc(C(F)(F)F)n1)C2 when you can. 8
